B1: Far upstream element-binding protein 3, residues 75 to 150; numbered along this chain, Q96I24 (parent)
chain: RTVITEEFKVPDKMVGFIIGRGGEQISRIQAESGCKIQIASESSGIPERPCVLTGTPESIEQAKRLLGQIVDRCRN

# Variants of: B1
# method_summary: abundance fitness (aPCA) (normalised: wild type 0, dead -1); higher = more abundant; growth selection in yeast, the domain comes from the species named
# details: Homo sapiens
The following variants are listed with their measured abundance fitness values.
Give only the figure.

Please review the following examples before continuing.
# mutation_name, abundance fitness
records = [
    ("E32A", -0.074),
    ("R75C", -0.124),
    ("S33M", -0.646),
    ("V52F", -0.107),
    ("I4R", -0.065),
]

Sample R65W — what was its abundance fitness?
-0.069

Sample Q69P — what was its abundance fitness?
-0.156

Sample T56E — what was its abundance fitness?
-0.08
